Target: Neuronal acetylcholine receptor; alpha4/beta2 (Homo sapiens, UniProt P17787+P43681)
Sequence (P17787 whole entry): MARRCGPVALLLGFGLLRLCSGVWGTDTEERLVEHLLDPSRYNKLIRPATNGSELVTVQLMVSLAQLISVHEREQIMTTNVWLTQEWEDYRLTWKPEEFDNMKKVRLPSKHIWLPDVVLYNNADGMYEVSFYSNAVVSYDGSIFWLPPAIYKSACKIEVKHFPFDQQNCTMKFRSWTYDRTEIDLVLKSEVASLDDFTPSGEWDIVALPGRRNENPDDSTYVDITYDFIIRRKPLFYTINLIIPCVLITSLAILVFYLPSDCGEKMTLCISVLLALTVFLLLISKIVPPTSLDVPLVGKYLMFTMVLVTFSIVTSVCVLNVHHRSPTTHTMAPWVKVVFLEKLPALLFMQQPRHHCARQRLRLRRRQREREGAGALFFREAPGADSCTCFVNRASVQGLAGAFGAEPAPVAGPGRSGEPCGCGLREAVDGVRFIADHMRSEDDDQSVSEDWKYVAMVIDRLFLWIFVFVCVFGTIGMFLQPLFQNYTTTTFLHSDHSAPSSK
Sequence (P43681 whole entry): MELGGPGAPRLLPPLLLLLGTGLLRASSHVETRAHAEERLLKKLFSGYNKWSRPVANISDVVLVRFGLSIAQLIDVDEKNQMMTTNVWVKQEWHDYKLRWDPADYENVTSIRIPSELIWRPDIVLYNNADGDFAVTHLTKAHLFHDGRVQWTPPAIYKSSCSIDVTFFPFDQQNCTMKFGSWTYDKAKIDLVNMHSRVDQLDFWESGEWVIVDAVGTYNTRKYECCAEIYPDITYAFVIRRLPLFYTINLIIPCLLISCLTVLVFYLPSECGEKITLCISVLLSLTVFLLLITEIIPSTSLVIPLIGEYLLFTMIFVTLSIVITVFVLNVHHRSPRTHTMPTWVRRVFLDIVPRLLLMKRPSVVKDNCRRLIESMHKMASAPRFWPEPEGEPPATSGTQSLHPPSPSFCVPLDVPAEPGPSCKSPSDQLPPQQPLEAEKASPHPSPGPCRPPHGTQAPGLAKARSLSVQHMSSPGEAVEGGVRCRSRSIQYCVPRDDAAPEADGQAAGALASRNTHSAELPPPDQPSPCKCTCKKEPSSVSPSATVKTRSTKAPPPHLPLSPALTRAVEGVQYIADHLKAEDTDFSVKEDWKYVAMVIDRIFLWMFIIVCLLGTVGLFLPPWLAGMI
Experiment: Agonist activity at wild type human alpha4beta2 transfected in rat GH4-C1 cells at holding potential of -70 mV by whole cell patch clamp electrophysiology method
Format: cell-based
parameter_measured: EC50 (µM)
Your answer is read as µM, so omit the unit and give the number.

// solved cases for EC50 follow
{"smi": "CN1CCC[C@H]1[C@@H]1COc2ncccc2O1", "measured_target": "Neuronal acetylcholine receptor; alpha4/beta2 (Homo sapiens, UniProt P17787+P43681)", "EC50, µM": 2.6}
{"smi": "CN1CCC[C@H]1[C@H]1COc2c(N)cccc2O1", "measured_target": "Neuronal acetylcholine receptor; alpha4/beta2 (Homo sapiens, UniProt P17787+P43681)", "EC50, µM": 2.4}

Query compound follows.
Q: Recorded EC50 for CN1CCC[C@H]1[C@@H]1COc2ccc(O)cc2O1 with Neuronal acetylcholine receptor; alpha4/beta2 (Homo sapiens, UniProt P17787+P43681), please?
Result: 3.8

---

compounds and their reported Ki
Target: Neuronal acetylcholine receptor subunit alpha-7 (Rattus norvegicus, UniProt Q05941)
Sequence (Q05941 whole entry): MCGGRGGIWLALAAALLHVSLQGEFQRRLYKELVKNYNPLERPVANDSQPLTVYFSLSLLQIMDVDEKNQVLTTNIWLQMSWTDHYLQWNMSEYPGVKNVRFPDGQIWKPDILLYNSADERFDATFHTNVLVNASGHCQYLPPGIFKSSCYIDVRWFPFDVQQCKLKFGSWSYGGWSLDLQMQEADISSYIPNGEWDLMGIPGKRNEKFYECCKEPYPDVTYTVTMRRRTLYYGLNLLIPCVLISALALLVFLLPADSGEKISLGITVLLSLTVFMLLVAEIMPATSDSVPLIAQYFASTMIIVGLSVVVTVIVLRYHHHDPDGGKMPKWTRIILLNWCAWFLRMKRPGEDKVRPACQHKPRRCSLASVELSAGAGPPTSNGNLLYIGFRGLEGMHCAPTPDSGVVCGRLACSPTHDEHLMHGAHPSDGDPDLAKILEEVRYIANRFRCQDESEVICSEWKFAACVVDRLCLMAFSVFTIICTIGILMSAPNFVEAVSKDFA
Experiment: Displacement of [125I]alpha-bungarotoxin from alpha7nAChR in rat hippocampus membranes preincubated for 5 mins followed by [125I]alpha-bungarotoxin addition and measured after overnight incubation by liquid scintillation beta counter analysis
State just the number; it will be interpreted in µM.

For orientation, consider the following solved cases.
{"smi": "CN1CCC[C@H]1[C@H]1COc2cc(O)ccc2O1", "unit_info": "µM", "numeric_value": 10.5}
{"smi": "CN1CCC[C@H]1[C@@H]1COc2cc(O)ccc2O1", "unit_info": "µM", "numeric_value": 26.8}
{"smi": "CN1CCC[C@H]1[C@@H]1COc2cc(-c3ccccc3)ccc2O1", "unit_info": "µM", "numeric_value": 8.1}
{"smi": "CN1CCC[C@H]1[C@@H]1COc2cc([N+](=O)[O-])ccc2O1", "unit_info": "µM", "numeric_value": 31.5}

Q: Item under review: CN1CCC[C@H]1[C@H]1COc2c(N)cccc2O1 . Reported Ki?
Result: 44.5

---

Test: Displacement of [3H]-epibatidine from human alpha4beta2 nAChR S108A mutant transfected in human Hela cell membranes preincubated for 5 mins followed by [3H]-Epibatidine addition and measured after overnight incubation by liquid scintillation beta counter analysis
pKi: −log10 of the molar value.
Please enter true where pKi is greater than or equal to 8, and false where it is lower.

{"smi": "CN1CCC[C@H]1[C@@H]1COc2ncccc2O1", "class_name": "false"}

Q: Decide: is the reported value of pKi for CN1CCC[C@H]1[C@@H]1COc2ccccc2O1 equal to or greater than 8?
Result: false

Q: How about CN1CCC[C@H]1[C@H]1COc2c(N)cccc2O1 ?
Result: false

Q: What do we get for CN1CCC[C@H]1[C@@H]1COc2ccc(O)cc2O1 ?
Result: true

---

Recorded log10 Ki by entry
Target: Neuronal acetylcholine receptor; alpha3/beta4 (Homo sapiens, UniProt P30926+P32297)
Sequence (P30926 whole entry): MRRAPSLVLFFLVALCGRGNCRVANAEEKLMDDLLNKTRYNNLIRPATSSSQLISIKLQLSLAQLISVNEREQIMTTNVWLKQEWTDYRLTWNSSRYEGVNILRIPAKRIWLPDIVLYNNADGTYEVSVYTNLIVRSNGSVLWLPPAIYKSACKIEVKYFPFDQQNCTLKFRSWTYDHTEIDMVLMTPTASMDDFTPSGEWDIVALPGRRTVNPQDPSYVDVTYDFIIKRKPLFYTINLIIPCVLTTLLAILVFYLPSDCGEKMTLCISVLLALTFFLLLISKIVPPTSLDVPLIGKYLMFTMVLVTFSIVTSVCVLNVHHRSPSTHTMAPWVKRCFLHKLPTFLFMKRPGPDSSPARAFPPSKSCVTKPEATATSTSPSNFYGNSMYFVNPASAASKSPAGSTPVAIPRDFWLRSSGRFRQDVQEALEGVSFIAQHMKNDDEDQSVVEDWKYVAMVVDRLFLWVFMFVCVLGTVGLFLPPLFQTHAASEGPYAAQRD
Sequence (P32297 whole entry): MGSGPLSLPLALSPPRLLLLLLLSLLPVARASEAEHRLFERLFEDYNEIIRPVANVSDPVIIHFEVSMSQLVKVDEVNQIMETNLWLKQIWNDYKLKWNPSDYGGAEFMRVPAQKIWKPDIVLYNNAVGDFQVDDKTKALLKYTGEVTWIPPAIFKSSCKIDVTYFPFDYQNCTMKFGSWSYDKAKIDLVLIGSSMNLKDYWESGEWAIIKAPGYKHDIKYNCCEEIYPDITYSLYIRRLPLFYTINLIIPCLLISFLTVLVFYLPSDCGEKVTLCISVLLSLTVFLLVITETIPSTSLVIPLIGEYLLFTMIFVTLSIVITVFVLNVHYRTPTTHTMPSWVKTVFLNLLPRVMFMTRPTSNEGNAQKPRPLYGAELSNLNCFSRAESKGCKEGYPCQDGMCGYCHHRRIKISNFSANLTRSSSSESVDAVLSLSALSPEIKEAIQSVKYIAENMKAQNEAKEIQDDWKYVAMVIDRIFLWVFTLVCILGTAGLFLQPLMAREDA
Experiment: Displacement of [3H]-epibatidine from human alpha3beta4 transfected in HEK293 cell membranes preincubated for 5 mins followed by [3H]-epibatidine addition and measured after overnight incubation by liquid scintillation beta counter analysis
Please keep in mind that the values are log10 of Ki expressed in µM.

Q: Look up log10 Ki for this compound: CN1CCC[C@H]1[C@@H]1COc2c(N)cccc2O1
Result: 0.59

Q: Same for CC(=O)Nc1ccc2c(c1)O[C@@H]([C@@H]1CCCN1C)CO2
Result: 0.94

---

Molecular target: Neuronal acetylcholine receptor; alpha4/beta2 (Rattus norvegicus, UniProt P09483+P12390)
Sequence (P09483 whole entry): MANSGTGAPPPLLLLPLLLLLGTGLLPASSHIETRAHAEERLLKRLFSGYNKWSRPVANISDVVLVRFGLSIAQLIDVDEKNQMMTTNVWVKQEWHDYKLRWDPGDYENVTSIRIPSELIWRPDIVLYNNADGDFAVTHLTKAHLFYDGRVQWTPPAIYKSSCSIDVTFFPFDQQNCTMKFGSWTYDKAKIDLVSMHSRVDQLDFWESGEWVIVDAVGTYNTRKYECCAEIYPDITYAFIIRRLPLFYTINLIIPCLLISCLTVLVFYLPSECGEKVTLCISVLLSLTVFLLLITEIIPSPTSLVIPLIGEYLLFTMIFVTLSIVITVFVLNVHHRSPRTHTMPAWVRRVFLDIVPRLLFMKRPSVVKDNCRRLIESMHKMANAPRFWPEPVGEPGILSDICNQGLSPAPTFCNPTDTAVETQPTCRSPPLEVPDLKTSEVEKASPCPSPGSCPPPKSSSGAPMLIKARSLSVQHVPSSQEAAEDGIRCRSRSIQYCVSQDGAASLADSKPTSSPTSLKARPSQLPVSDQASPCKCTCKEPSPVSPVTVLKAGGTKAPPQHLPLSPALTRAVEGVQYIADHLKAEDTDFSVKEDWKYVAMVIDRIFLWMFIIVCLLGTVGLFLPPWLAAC
Sequence (P12390 whole entry): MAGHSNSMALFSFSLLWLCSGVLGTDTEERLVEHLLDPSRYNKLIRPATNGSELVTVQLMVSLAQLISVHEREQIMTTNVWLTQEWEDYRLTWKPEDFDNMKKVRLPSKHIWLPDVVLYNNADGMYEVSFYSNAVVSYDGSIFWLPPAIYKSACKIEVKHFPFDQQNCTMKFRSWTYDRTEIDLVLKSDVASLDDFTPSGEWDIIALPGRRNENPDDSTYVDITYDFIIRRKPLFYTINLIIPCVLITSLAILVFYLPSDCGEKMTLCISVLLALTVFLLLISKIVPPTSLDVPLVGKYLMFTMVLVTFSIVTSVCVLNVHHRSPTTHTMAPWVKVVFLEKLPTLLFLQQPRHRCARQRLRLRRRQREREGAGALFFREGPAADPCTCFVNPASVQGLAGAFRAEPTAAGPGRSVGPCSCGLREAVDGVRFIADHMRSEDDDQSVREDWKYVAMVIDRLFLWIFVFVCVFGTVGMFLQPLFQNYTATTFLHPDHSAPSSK
Assay: Displacement of [3H]-Epibatidine from alpha4beta2 nAChR in rat cerebral cortex membrane preincubated for 5 mins followed by [3H]-Epibatidine addition and measured after overnight incubation by liquid scintillation beta counter analysis
Output True for records whose Ki is lower than 10 µM, False for records at or above 10 µM.

Q: For this compound, is Ki lower than 10 µM? CN1CCC[C@H]1[C@H]1COc2cc(N)ccc2O1
Result: False

Q: Follow-up item: CN1CCC[C@H]1[C@@H]1COc2ccc(N)cc2O1
Result: True

Q: Queued: CN1CCC[C@H]1[C@H]1COc2c(cccc2[N+](=O)[O-])O1
Result: True

Q: Then what about the compound CN1CCC[C@H]1[C@H]1COc2c(N)cccc2O1 ?
Result: True

Q: Also, CN(C)c1ccc2c(c1)O[C@H]([C@@H]1CCCN1C)CO2 please.
Result: False

Q: Same lookup for CN1CCC[C@H]1[C@H]1COc2c(O)cccc2O1 , please.
Result: True

Q: Now give it for CN1CCC[C@H]1[C@@H]1COc2ncccc2O1 too.
Result: True

Q: Do the same for CN1CCC[C@H]1[C@@H]1COc2c(N)cccc2O1 please
Result: True

Q: Then this compound: CC(=O)Nc1ccc2c(c1)O[C@@H]([C@@H]1CCCN1C)CO2
Result: False

Q: // repeat for CN1CCC[C@H]1[C@@H]1COc2cc(N)ccc2O1 and report
Result: False

Q: Try this compound too: CC(=O)Nc1ccc2c(c1)O[C@H]([C@@H]1CCCN1C)CO2
Result: True

---

Biological target: Neuronal acetylcholine receptor; alpha3/beta4 (Homo sapiens, UniProt P30926+P32297)
Test: Displacement of [3H]-epibatidine from human alpha3beta4 transfected in HEK293 cell membranes preincubated for 5 mins followed by [3H]-epibatidine addition and measured after overnight incubation by liquid scintillation beta counter analysis
parameter_measured: pKi
Conceptually, pKi converts a concentration in mol/L into minus its log10.

Q: // lookup pKi for CN1CCC[C@H]1[C@H]1COc2cc(O)ccc2O1
Result: 5.22

Q: Note, next up: CN1CCC[C@H]1[C@@H]1COc2c(cccc2[N+](=O)[O-])O1
Result: 5.96

---

Target: Neuronal acetylcholine receptor; alpha4/beta2 (Homo sapiens, UniProt P17787+P43681)
Assay: Partial agonist activity at human alpha4beta2 transfected in rat GH4-C1 cells at holding potential of -70 mV by whole cell patch clamp electrophysiology method
Type: cell-based
EC50 listing for selected compounds.
Respond with the bare value in µM.

{"smi": "CN1CCC[C@H]1[C@@H]1COc2ccc(N)cc2O1", "EC50 / µM": 14}

Consider the additional compound presented here.
Q: Given the entry CN1CCC[C@H]1[C@H]1COc2c(N)cccc2O1 , report its measured EC50.
Result: 0.005

---

Biological target: Neuronal acetylcholine receptor subunit alpha-7 (Rattus norvegicus)
Assay: Displacement of [125I]alpha-bungarotoxin from alpha7nAChR in rat hippocampus membranes preincubated for 5 mins followed by [125I]alpha-bungarotoxin addition and measured after overnight incubation by liquid scintillation beta counter analysis
parameter_measured: Ki (µM)
Numeric answer only, unit µM assumed.

Q: Sample CN1CCC[C@H]1[C@@H]1COc2ccc([N+](=O)[O-])cc2O1 — what was its Ki?
Result: 10.4

Q: Try this molecule too: CN1CCC[C@H]1[C@@H]1COc2c(cccc2-c2ccccc2)O1
Result: 45.5

Q: What do you have for CN1CCC[C@H]1[C@H]1COc2cc([N+](=O)[O-])ccc2O1 ?
Result: 13.5

Q: Try this molecule too: CN1CCC[C@H]1[C@@H]1COc2c(N)cccc2O1
Result: 109

Q: Field entry: CN1CCC[C@H]1[C@H]1COc2c(cccc2-c2ccccc2)O1
Result: 50

Q: Also CN1CCC[C@H]1[C@@H]1COc2ccc(N)cc2O1 ?
Result: 2.6

Q: Okay, and CN1CCC[C@H]1[C@H]1COc2ccc([N+](=O)[O-])cc2O1 ?
Result: 42.2

Q: Let us now turn to CN1CCC[C@H]1[C@@H]1COc2ncccc2O1
Result: 89

Q: Then CN1CCC[C@H]1[C@H]1COc2cc(-c3ccccc3)ccc2O1 ?
Result: 2.1

Q: Also need CN1CCC[C@H]1[C@H]1COc2ccc(N)cc2O1 , thanks.
Result: 19.1

---

Target: Neuronal acetylcholine receptor; alpha4/beta2 (Rattus norvegicus, UniProt P09483+P12390)
Assay: Displacement of [3H]-Epibatidine from alpha4beta2 nAChR in rat cerebral cortex membrane preincubated for 5 mins followed by [3H]-Epibatidine addition and measured after overnight incubation by liquid scintillation beta counter analysis
Ki vs 70 µM: less than gives criterion met; not less than gives criterion not met.

Q: Take the compound CN1CCC[C@H]1[C@H]1COc2cc(-c3ccccc3)ccc2O1 and say whether its Ki is less than 70 µM.
Result: criterion not met

Q: Another: CN1CCC[C@H]1[C@H]1COc2c(cccc2-c2ccccc2)O1
Result: criterion met

Q: Follow-up entry: CN1CCC[C@H]1[C@@H]1COc2c(cccc2[N+](=O)[O-])O1
Result: criterion met

Q: # iterate: CN1CCC[C@H]1[C@H]1COc2ccc(N)cc2O1
Result: criterion met

Q: Next up: CN1CCC[C@H]1[C@@H]1COc2c(O)cccc2O1
Result: criterion met

---

Biological target: Neuronal acetylcholine receptor; alpha3/beta4 (Homo sapiens, UniProt P30926+P32297)
Experiment: Partial agonist activity at human alpha3beta4 transfected in rat GH4-C1 cells at holding potential of -70 mV by whole cell patch clamp electrophysiology method
parameter_measured: EC50 (µM)
Respond with the bare value in µM.

{"smi": "CN1CCC[C@H]1[C@H]1COc2c(N)cccc2O1", "measured_target": "Neuronal acetylcholine receptor; alpha3/beta4 (Homo sapiens, UniProt P30926+P32297)", "unit_info": "µM", "EC50": 8.7}

Q: Endpoint output: EC50 of CN1CCC[C@H]1[C@@H]1COc2ccc(N)cc2O1 . Value?
Result: 19
